- experiment-summary: human hepatoma cell viability loss – ATP luminescence, cytotoxicity control for P. falciparum antimalarial project, primary screen (AID 2303);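 further: 0% = DMSO wells and 100% = digitonin-killed cells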
- condition-info: HepG2 viability, 24-48 h, at 10 µM, active compounds read high
experimental-endpoint: inhibition (%)

molecule	experimental-endpoint	units-text	meas-value
COc1cc(OC)c(NC(=O)C2c3ccccc3C(=O)N(C)C2c2cccs2)cc1Cl (configuration not stated)	inhibition	%	4
Cc1ccccc1C1CCN(C2CCC(NC(=O)/C=C/c3cc(F)cc(F)c3)CC2)CC1 (configuration not stated)	inhibition	%	53
O=C(NCc1ccc(C(=O)N2CCC(N3CCCCC3)CC2)cc1)c1cc(-c2cccc(C(F)(F)F)c2)ccc1O	inhibition	%	-3
O=C(/C=C/c1ccc(Br)cc1)NCCCCCN1CCC(c2c[nH]c3ccccc23)CC1	inhibition	%	73
c1cc(-c2ccc(CNC3CC3)cc2)cc(-c2nc3ccccc3[nH]2)c1	inhibition	%	17
N#Cc1ccc2c(c1)CCN(CCC1CCC(NC(=O)/C=C/c3nc4ccccc4s3)CC1)CC2 (configuration not stated)	inhibition	%	6
CN(C)C1CCN(CC#Cc2cc3ncnc(Nc4ccc(OCc5cccc(F)c5)c(Cl)c4)c3s2)CC1	inhibition	%	34
CN(C)c1ccc(CN2CCCCC(NC(=O)c3cc(-c4ccccc4Cl)cs3)C2)cc1 (configuration not stated)	inhibition	%	10
COc1ccc(Cc2nc3c(n2C(C)=O)SC(c2ccc(Cl)c(Cl)c2)=NN3C(C)=O)cc1	inhibition	%	-2
COc1ccc(CNC2Cc3ccccc3C2)cc1-c1ccc(S(=O)(=O)NCc2ccccc2)s1	inhibition	%	22
CCCN(Cc1nnc(-c2cccs2)o1)C(=O)CSc1nnnn1-c1ccc(C)c(C)c1	inhibition	%	-7
CCCCCCCNC(=O)NCC1CCCN(CCCCCNC(=O)/C=C/c2ccc(Cl)c(Cl)c2)C1 (configuration not stated)	inhibition	%	98
CCN1CCN(CCCNc2c3ccc(Cl)cc3nc3ccc(O)cc23)CC1	inhibition	%	32
CCCCCCSc1nnc(COc2cccc3ccccc23)n1-c1ccc(OC)cc1	inhibition	%	19
CC(=O)Nc1ncc(C(=O)Nc2ccc(-c3cccc(-c4nc5ccc(C(F)(F)F)cc5[nH]4)c3)cc2)s1	inhibition	%	79
COc1cc2nc(N3CCC(CNC(=O)c4ccc(-c5ccc(C#N)cc5C)cc4)CC3)nc(N)c2cc1OC	inhibition	%	28
Nc1ccc(-c2ccc(NC(=O)Nc3ccccc3)cc2)cn1	inhibition	%	-3
COc1cc2nc(N3CCC(CNC(=O)c4ccc(-c5cccc(C#N)c5)cc4)CC3)nc(N)c2cc1OC	inhibition	%	18
COC(=O)CCCCCOc1cc(Cc2cnc(N)nc2N)cc(OC)c1OC	inhibition	%	-15
CC1CCc2sc(-c3nnc(SC(C)C(=O)NC4CC4)o3)cc2C1 (configuration not stated)	inhibition	%	5
Nc1c2nc(-c3c(F)cccc3Cl)[nH]c(=O)c2nc(=O)n1-c1ccccc1	inhibition	%	52
COc1ccc2nccc(NN=Cc3ccc(Cl)cc3)c2c1	inhibition	%	9
